This collection of values is drawn from PubChem BioAssay.

Assay: modulation of C. elegans fzo-1 (AID 1259413);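 also: fzo-1 mutant C. elegans worms in liquid wells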
Conditions: C. elegans fzo-1 modulator screen, mean read-out; active compounds read high
Measurement Type: mean signal
// keep it numeric: no unit symbol after the value

- Compound: "COc1cc(C(=O)NS(=O)(=O)c2ccccc2C)ccc1Cc1cn(C)c2ccc(NC(=O)OC3CCCC3)cc12"
  Measurement Type: "mean signal"
  Val: 223

Consider CC(C)NCC(O)COc1ccc(COCCOC(C)C)cc1 (centres undefined) . Its measured mean signal is 229

Consider CC(C)c1ccc2oc3nc(N)c(C(=O)O)cc3c(=O)c2c1 . Its measured mean signal is 242

Consider CCN1CC(CCN2CCOCC2)C(c2ccccc2)(c2ccccc2)C1=O (centres undefined) . Its measured mean signal is 250

* * *

Assay: inhibition of endothelial tube formation, primary screen, imaging, VEGF stimulated, CD31 staining, tube area, NPC library (AID 1117340)
Conditions: VEGF-stimulated ADSC/ECFC co-culture, at 10 µM
The source made the active and inactive calls.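 Rule for the calls: active = compound that reduces growth-factor-driven endothelial tube area in a mixed cell culture, no cutoff stated; inactive = the rest.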
Field 'call' accepts Y for active, N for inactive

Sample answers from the record:
- Molecule: "Oc1ccc(Cl)cc1Cc1cc(Cl)ccc1O"
  Discrete Label: "Y"
- Molecule: "Cn1c(=O)c2c(ncn2CCO)n(C)c1=O"
  Discrete Label: "N"
- Molecule: "O=C(O)CCC(=O)Nc1ccc(S(=O)(=O)Nc2nccs2)cc1"
  Discrete Label: "N"
- Molecule: "CC1(C)OC(=O)NC1=O"
  Discrete Label: "N"
- Molecule: "CC(=O)N[C@@H](CS)C(=O)O"
  Discrete Label: "N"

(Q) For Oc1cccc2[nH]ccc12 , what call appears in the results of this test?
(A) N

(Q) For O=c1[nH]c(=O)n([C@H]2C[C@H](O)[C@@H](CO)O2)cc1F , what call appears in the results of this test?
(A) Y

(Q) For Cn1cnc2c1c(=O)[nH]c(=O)n2C , what call appears in the results of this test?
(A) N

* * *

# inhibition annotations
Biological target: 6-phosphogluconate dehydrogenase, decarboxylating (Homo sapiens)
Test: inhibition of human phosphogluconate dehydrogenase – biochemical, recombinant enzyme, NADPH absorbance, primary screen (AID 1159550)
Conditions: recombinant 6PGD, NADPH absorbance 341 nm; at 10 µM; active compounds read high
Active and inactive are the calls of the source.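 The calls were made as follows: active = at least 20% inhibition of 6-phosphogluconate dehydrogenase activity; inactive = the rest.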

- Compound: "Cc1ccsc1/C=C/C1=NCCCN1C"
  inhibition: "5.11% (inactive)"
- Compound: "CC1(C)S[C@@H]2[C@H](NC(=O)[C@H](N)c3ccccc3)C(=O)N2[C@H]1C(=O)O"
  inhibition: "9.14% (inactive)"
- Compound: "CC(=O)OC(C)C[N+](C)(C)C (stereo not given)"
  inhibition: "19.2% (inactive)"
- Compound: "CC(C)NC[C@@H](O)COc1cccc2ccccc12"
  inhibition: "5.64% (inactive)"

# next compound below
Consider CCCCC1(COC(=O)CCC(=O)O)C(=O)N(c2ccccc2)N(c2ccccc2)C1=O . Its measured inhibition is -3.37% (inactive)

* * *

Test: viability loss in pontine glioma line – cell-based, SU-DIPG-XVII, MIPE5.0, CellTiter-Glo, qHTS, dose response (AID 1347060);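 as to AC50: cells exposed to compound for 48 hours before viability readout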
Settings: CellTiter-Glo ATP luminescence
Records with an inconclusive call do not appear. Active and inactive are the calls of the source. Cut-off not given; nearly all actives show AC50 up to about 26 µM.
Field 'call' accepts 1 (yes) = active, 0 (no) = inactive

Sample answers from the record:
- Compound: "CN(C)CCc1c[nH]c2ccc(CS(=O)(=O)N3CCCC3)cc12"
  Discrete Label: "0 (no)"
- Compound: "CNC[C@H](O)c1ccc(O)c(O)c1"
  Discrete Label: "0 (no)"

(Q) For CCOC(=O)O[C@]1(C(=O)OCCl)CC[C@H]2[C@@H]3CCC4=CC(=O)C=C[C@]4(C)[C@H]3[C@@H](O)C[C@@]21C , what call appears in the results of this test?
(A) 0 (no)

(Q) For O=C(Nc1ccc([N+](=O)[O-])cc1Cl)c1cc(Cl)ccc1O , what call appears in the results of this test?
(A) 1 (yes)

(Q) For Nc1nc(=S)c2[nH]cnc2[nH]1 , what call appears in the results of this test?
(A) 1 (yes)

(Q) For COc1cc(C(=O)NS(=O)(=O)c2ccccc2C)ccc1Cc1cn(C)c2ccc(NC(=O)OC3CCCC3)cc12 , what call appears in the results of this test?
(A) 0 (no)

(Q) For CC(N)C12CC3CC(CC(C3)C1)C2 (stereo not drawn) , what call appears in the results of this test?
(A) 0 (no)

(Q) For C#C[C@]1(O)CC[C@H]2[C@@H]3CCc4cc(O)ccc4[C@H]3CC[C@@]21C , what call appears in the results of this test?
(A) 1 (yes)
